Tested on: ovariectomized female rats
Assay: 34-week treatment with ethynyl estradiol, EM-652.HCl, Raloxifene and DHEA, body fat (Example 7)
Assay type: in vivo, rat
Conditions: OVX rats, 34 weeks, DEXA; EE2 0.1, Raloxifene 1, EM-652.HCl 1 mg/kg oral, DHEA 80 mg/kg topical
testReadout: Fat % (%)
Give bare numbers, in %.

Recorded Fat %, per entry:
compound | targetOrSystem | unit | Fat %
Cl.O=C(c1ccc(OCCN2CCCCC2)cc1)c1c(-c2ccc(O)cc2)sc2cc(O)ccc12 | ovariectomized female rats | % | 22.8
CC1=C(c2ccc(O)cc2)[C@H](c2ccc(OCCN3CCCCC3)cc2)Oc2cc(O)ccc21.Cl [EM-652.HCl] | ovariectomized female rats | % | 27.7
C[C@]12CC[C@H](O)CC1=CC[C@@H]1[C@@H]2CC[C@]2(C)C(=O)CC[C@@H]12 [DHEA, dehydroepiandrosterone] | ovariectomized female rats | % | 26.8

Attention now shifts to the item below.
C#C[C@]1(O)CC[C@H]2[C@@H]3CCc4cc(O)ccc4[C@H]3CC[C@@]21C has a reported Fat % of 19.8

Provenance of the data: patent US8609695B2
